Origin of values: patent US20120264685A1

Reported values of cAMP release, % activity with respect to control, at 10 nM for individual entries
Biological target: human GLP-1 receptor (human, UniProt P43220 24-463)
Experiment: cell-based or functional assay
Where no end group is shown, it is not given here. [ ]: non-standard residue; d: D form. Bip(2'-Et-4'-OMe) = CCc1cc(OC)ccc1-c1ccc(C[C@H](N)C(=O)O)cc1; αMePhe(2,6-F2) = C[C@](N)(Cc1c(F)cccc1F)C(=O)O; αMePhe(2-F) = C[C@](N)(Cc1ccccc1F)C(=O)O; αMeBip(OMe) = alpha-methylated Bip(OMe); hhPhe = N[C@@H](CCCc1ccccc1)C(=O)O; αMeD = C[C@](N)(CC(=O)O)C(=O)O; αMeP = C[C@@]1(C(=O)O)CCCN1; αMeAPPA = not defined here; αMeS = C[C@](N)(CO)C(=O)O; Aib = CC(C)(N)C(=O)O

Below, 8 binders whose answers are already recorded.
# BINDER, REPORTED MEASUREMENT
data = [
    ("VVH[Aib]QGTFTSD[αMeBip(OMe)][hhPhe] (not fully specified (C-terminus); printed as VVH-Aib-QGTFTSD-(αMe-Bip(OMe))-(APPA)) [Seq. ID. No. 207]", "80 % of control"),
    ("VHSEGT[αMePhe(2-F)]TSD[αMeBip(OMe)][αMeAPPA] (not fully specified (C-terminus); printed as VHSEGT-(αMe-2FPhe)-TSD-(αMe-Bip(OMe))-(αMe-APPA); reading uncertain) [Seq. ID. No. 145]", "99 % of control"),
    ("VH[αMeP]EGTFTSD[αMeBip(OMe)][hhPhe] (not fully specified (C-terminus); printed as VH-(αMe-Pro)-EGTFTSD-(αMe-Bip(OMe))-(APPA)) [Seq. ID. No. 14]", "89 % of control"),
    ("VHAEGTFTSD[Bip(2'-Et-4'-OMe)][αMeAPPA] (not fully specified (C-terminus); printed as VHAEGTFTSD-Bip(OMe)-(αMe-APPA); reading uncertain) [Seq. ID. No. 88]", "77 % of control"),
    ("VHAEGTFTSD[αMeBip(OMe)][hhPhe] (not fully specified (C-terminus); printed as VHAEGTFTSD-(αMe-Bip(OMe))-(APPA)) [Seq. ID. No. 12]", "86 % of control"),
    ("VHAQGT[αMePhe(2,6-F2)]TSD[αMeBip(OMe)][hhPhe]-NH2 [Seq. ID. No. 26]", "99 % of control"),
    ("VHAQGT[αMePhe(2,6-F2)]T[αMeS][αMeD][Bip(2'-Et-4'-OMe)][αMeAPPA] (not fully specified (C-terminus); reading uncertain) [Seq. ID. No. 124]", "81 % of control"),
    ("VHSQGT[αMePhe(2,6-F2)]TSD[Bip(2'-Et-4'-OMe)][αMeAPPA] (not fully specified (C-terminus); printed as VHSQGT-(αMe-2,6-diF-Phe)-TSD-Bip(OMe)-(αMe-APPA); reading uncertain) [Seq. ID. No. 99]", "99 % of control"),
]

Pending binder:
In: Identify measured cAMP release, % activity with respect to control, at 10 nM associated with VH[Aib]QGTFTS[αMeD][αMeBip(OMe)][hhPhe]-NH2 [Seq. ID. No. 59]
Out: 80 % of control
